# TARGET_ENTITY: UniProtKB P68400
# Sequence (P68400 whole entry): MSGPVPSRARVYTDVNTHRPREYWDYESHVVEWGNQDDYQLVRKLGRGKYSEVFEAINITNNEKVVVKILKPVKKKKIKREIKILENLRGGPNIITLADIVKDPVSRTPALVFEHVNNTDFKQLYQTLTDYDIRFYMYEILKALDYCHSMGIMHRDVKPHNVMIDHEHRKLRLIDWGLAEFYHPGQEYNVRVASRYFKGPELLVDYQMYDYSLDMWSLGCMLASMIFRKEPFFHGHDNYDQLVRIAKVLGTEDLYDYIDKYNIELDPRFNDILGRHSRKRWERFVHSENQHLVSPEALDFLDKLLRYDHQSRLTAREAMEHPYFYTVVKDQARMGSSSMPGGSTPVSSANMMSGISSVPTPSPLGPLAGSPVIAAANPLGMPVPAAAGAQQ
# PROTOCOL_SUMMARY: P81 filter isotopic (radiometric) kinase assay, CK2 catalytic subunit
# TEST_PARAMETERS: substrate peptide […], Ki from IC50 by Cheng–Prusoff
OUTCOME_MEASURE: Ki (nM)

Look over these answered cases.
For the compound CC(O)CNc1nc2c(Br)c(Br)c(Br)c(Br)c2[nH]1 (racemic) , what Ki is on record? 296

Which value of Ki has been reported for CN(CCO)c1nc2c(Br)c(Br)c(Br)c(Br)c2[nH]1 in the records? 256

Returns the measured Ki for the input compound. Input: OCC(O)CNc1nc2c(Br)c(Br)c(Br)c(Br)c2[nH]1 (racemic) 151

Would you kindly share the measured Ki for OCCCNc1nc2c(Br)c(Br)c(Br)c(Br)c2[nH]1 ? 156

May I ask what Ki has been recorded for OC(CNc1nc2c(Br)c(Br)c(Br)c(Br)c2[nH]1)C(F)(F)F (racemic) ? 294

P: C[C@H](O)CNc1nc2c(Br)c(Br)c(Br)c(Br)c2[nH]1 [(S)-5]
Q: OCC(CO)Nc1nc2c(Br)c(Br)c(Br)c(Br)c2[nH]1
R: C[C@@H](O)CNc1nc2c(Br)c(Br)c(Br)c(Br)c2[nH]1 [(R)-5]
S: CCN(CC)CC(O)CNc1nc2c(Br)c(Br)c(Br)c(Br)c2[nH]1 (racemic)
Order the items by recorded Ki; the first position goes to the largest value. Write out the labels following the order that was asked for. S, R, P, Q

Where do the numbers come from? From paper PMC10385865.
